From: the supplement of paper PMC7125110

B1: glmS ribozyme (parent)
chain: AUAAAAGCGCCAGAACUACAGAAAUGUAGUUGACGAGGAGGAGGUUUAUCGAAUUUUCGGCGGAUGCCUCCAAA

Variants of: B1
assay-info: self-cleavage kobs at 10000 uM GlcN6P; higher = faster cleavage; RNA array
condition-parameters: with glucosamine-6-phosphate
Fewer inactive variants are shown than the library holds.
parameter: self-cleavage kobs at 10000 uM GlcN6P (s⁻¹)
Provide only the numeric value, understood in s⁻¹.

Observe how each entry below is paired with its result.
mut	unit-tag	self-cleavage kobs at 10000 uM GlcN6P
U30A U65C	s⁻¹	8.23e-05
U54A C68G	s⁻¹	9.77e-05
A6U U54G	s⁻¹	0.000204
C16G U31G	s⁻¹	0.00071
A12U U57G	s⁻¹	0.000241

Next:
Given G32U A53U , state its recorded self-cleavage kobs at 10000 uM GlcN6P.
0.000603
